Tested on: HS729
Test: relative viability vs DMSO control (72 h) (fraction); higher = more viable cells
Conditions: 0.04115 µM
value.type: relative viability

{"compound.structure.string": "CC1(C)CC=C(c2nc(C3CC(C)(C)OC(C)(C)C3)ccc2NC(=O)c2nc(C#N)c[nH]2)CC1", "value.type": "relative viability", "measurement": 0.902}
{"compound.structure.string": "Cc1cccc(-c2nn3c(c2-c2ccnc4ccc(C(N)=O)cc24)CCC3)n1", "value.type": "relative viability", "measurement": 0.892}
{"compound.structure.string": "CNC(=O)c1ccccc1Sc1ccc2c(/C=C/c3ccccn3)n[nH]c2c1", "value.type": "relative viability", "measurement": 0.916}
{"compound.structure.string": "COc1cc(Nc2ncc(F)c(Nc3ccc4c(n3)N(COP(=O)(O)O)C(=O)C(C)(C)O4)n2)cc(OC)c1OC", "value.type": "relative viability", "measurement": 0.914}

====

In this section we review reported relative viability values for a set of compounds.
System: SW684
Test: relative viability vs DMSO control (72 h) (fraction); higher = more viable cells
Settings: 1.111 µM

{"compound.structure.string": "CN1CCN(c2ccc(C(=O)Nc3n[nH]c4ccc(Cc5cc(F)cc(F)c5)cc34)c(NC3CCOCC3)c2)CC1", "relative viability": 1.1}
{"compound.structure.string": "CO[C@H]1C[C@@H]2CC[C@@H](C)[C@@](O)(O2)C(=O)C(=O)N2CCCC[C@H]2C(=O)O[C@H]([C@H](C)C[C@@H]2CC[C@@H](OCCO)[C@H](OC)C2)CC(=O)[C@H](C)/C=C(\\C)[C@@H](O)[C@@H](OC)C(=O)[C@H](C)C[C@H](C)/C=C/C=C/C=C/1C", "relative viability": 0.83}
{"compound.structure.string": "Cc1cccc(-c2nn3c(c2-c2ccnc4ccc(C(N)=O)cc24)CCC3)n1", "relative viability": 1.05}
{"compound.structure.string": "CC(C)Oc1ccc(-c2nn([C@@H](C)c3oc4ccc(F)cc4c(=O)c3-c3cccc(F)c3)c3ncnc(N)c23)cc1F", "relative viability": 0.966}
{"compound.structure.string": "Cn1cc(C2=C(c3cn(C4CCN(Cc5ccccn5)CC4)c4ccccc34)C(=O)NC2=O)c2ccccc21", "relative viability": 1.11}

====

Test system: SW982
Test: relative viability vs DMSO control (72 h) (fraction); higher = more viable cells
Details: 0.00051 µM

{"compound.structure.string": "O=C(Nc1ccc(OC(F)(F)Cl)cc1)c1cnc(N2CC[C@@H](O)C2)c(-c2cc[nH]n2)c1", "relative viability": 0.978}
{"compound.structure.string": "CC[C@@H]1CN(C(=O)NCC(F)(F)F)C[C@@H]1c1cnc2cnc3[nH]ccc3n12", "relative viability": 1.02}
{"compound.structure.string": "CCc1cnn2c(NCc3ccc[n+]([O-])c3)cc(N3CCCC[C@H]3CCO)nc12", "relative viability": 0.98}
{"compound.structure.string": "CCN1C(=O)N(c2c(F)c(OC)cc(OC)c2F)Cc2cnc3[nH]c(CN4CCOCC4)cc3c21", "relative viability": 0.978}

====

Tested on: SW982
Assay: relative viability vs DMSO control (72 h) (fraction); higher = more viable cells
Details: 0.1235 µM

{"molecule": "O=C(Nc1nc2cccc(-c3ccc(CN4CCS(=O)(=O)CC4)cc3)n2n1)C1CC1", "relative viability": 1.02}
{"molecule": "CN1CC[C@@H](NC(=O)Nc2ccc(C#N)cc2)C[C@@H]1c1nc2ccccc2[nH]1", "relative viability": 1}
{"molecule": "COc1cc(CCc2cc(NC(=O)c3ccc(N4CC(C)NC(C)C4)cc3)n[nH]2)cc(OC)c1 (configuration not stated)", "relative viability": 1}
{"molecule": "CC#CC(=O)N1CCC[C@H]1c1nc(-c2ccc(C(=O)Nc3ccccn3)cc2)c2c(N)nccn12", "relative viability": 1.02}
{"molecule": "CCN1C(=O)N(c2c(F)c(OC)cc(OC)c2F)Cc2cnc3[nH]c(CN4CCOCC4)cc3c21", "relative viability": 0.992}
{"molecule": "N#CCNC(=O)c1ccc(-c2ccnc(Nc3ccc(N4CCOCC4)cc3)n2)cc1", "relative viability": 0.987}
{"molecule": "CCC(=O)N1CC[C@H](Nc2ncnc3c2CN(c2cnc(OC)c(C(F)(F)F)c2)CC3)C1", "relative viability": 1.02}
